This listing pairs compounds with measured AST.
species on record: Rattus norvegicus; experiment: Open TG-GATES - Regimen: Daily Repeat; format: toxicity, organism-based, Sprague-Dawley; design: regimen Daily Repeat, gender Male, age 6 weeks; settings: in vivo, po, 300 mg/kg, […], tissue Plasma, route gavage, dose level Middle, time 28 day
Value expressed in IU/L; do not type the unit.

{"columns": ["COMPOUND", "VAL"],
 "data": [
  ["O=C(O)c1ccccc1Nc1ccccc1", 53.2],
  ["CC(=O)[C@@]1(O)CC[C@H]2[C@@H]3C=C(Cl)C4=CC(=O)CC[C@]4(C)[C@H]3CC[C@@]21C", 76.6],
  ["CCCCNC(=O)NS(=O)(=O)c1ccc(C)cc1 [TOLBUTAMIDE]", 65.6]
]}

From here, focus on the item given below.
Q) Look at this compound and give its reported AST. CC(S)C(=O)NCC(=O)O (centres undefined)
A) 64.6
